Source: patent US20040191843A1

test system: HL-60 neo; assay: DNA fragmentation in whole cells (release of 3H-labeled DNA fragments, 4 h); type: cell-based; details: Homo sapiens
measurement-label: IC50 (µM)
Write the answer as a number in µM, unit excluded.

IC50 on HL-60 neo for COc1cc([C@@H]2c3cc4c(cc3[C@@H](O[C@@H]3O[C@@H]5CO[C@@H](C)O[C@H]5[C@H](O)[C@H]3O)[C@H]3COC(=O)[C@H]23)OCO4)cc(OC)c1O [Etoposide, etoposide] is 26

----------
tested on: U937 cells; assay: Viability by trypan blue exclusion after 4 h treatment; assay type: cell-based, human; conditions: Homo sapiens, U-937; U937 + PMA (10 nM, 3 days); trypan blue, 4 h
measurement-label: IC50 (µM)
The reply should contain only the number, in µM.

IC50 in this record for COc1cc([C@@H]2c3cc4c(cc3[C@@H](O[C@@H]3O[C@@H]5CO[C@@H](C)O[C@H]5[C@H](O)[C@H]3O)[C@H]3COC(=O)[C@H]23)OCO4)cc(OC)c1O [Etoposide, etoposide] : 510
